SYSTEM_UNDER_TEST: UniProt:P41968
Sequence (P41968 whole entry): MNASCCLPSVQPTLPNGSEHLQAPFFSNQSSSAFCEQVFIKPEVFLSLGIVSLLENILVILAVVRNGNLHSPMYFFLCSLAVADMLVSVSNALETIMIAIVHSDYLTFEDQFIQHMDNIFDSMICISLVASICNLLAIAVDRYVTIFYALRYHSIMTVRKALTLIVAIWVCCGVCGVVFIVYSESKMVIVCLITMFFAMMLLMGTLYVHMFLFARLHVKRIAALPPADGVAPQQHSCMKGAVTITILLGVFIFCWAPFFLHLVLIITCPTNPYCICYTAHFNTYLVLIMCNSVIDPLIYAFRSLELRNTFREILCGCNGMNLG
TEST_NAME: Competitive inhibition binding assay, 125I-NDP-α-MSH, MC3-R
Set-up: expressed in transfected cells
CONDITION_DESCRIPTION: 1 μM compound; inhibition of 125I-NDP-α-MSH binding; mean of triplicates; results less than 0% reported as 0%

| MOLECULE | Inhibition at 1 μM MC3-R |
| --- | --- |
| N=C(N)NCCC[C@H]1C(=O)N(CCc2ccc3ccccc3c2)CCN1C(=O)[C@@H](Cc1ccc(Cl)cc1Cl)NC(=O)[C@@H](N)COCc1ccccc1 | 93% |
| NCCCC[C@H]1C(=O)N2C(CC[C@@H]2COc2ccc3c(c2)CCCC3)N1C(=O)[C@@H](Cc1ccc(Cl)cc1)NC(=O)[C@@H]1Cc2ccccc2CN1 (stereo partly drawn) | 19% |
| NCCCC[C@H]1C(=O)N(CCc2ccc3ccccc3c2)CCN1C(=O)[C@@H](Cc1ccc(Cl)cc1Cl)NC(=O)[C@@H]1Cc2ccccc2CN1 | 62% |
| NCCCC[C@H]1C(=O)N2C(CC[C@@H]2COc2ccc3ccccc3c2)N1C(=O)[C@@H](Cc1ccc(Cl)cc1)NC(=O)[C@@H](N)COCc1ccccc1 (stereo partly drawn) | 14% |
| N=C(N)NCCC[C@H]1C(=O)N2C(CC[C@@H]2COc2ccc3ccccc3c2)N1C(=O)[C@@H](Cc1ccc(Cl)cc1Cl)NC(=O)[C@@H]1C[C@@H](OCc2ccccc2)CN1 (stereo partly drawn) | 84% |
| NCCCCC1C(=O)N2C(COc3ccccc3)CCC2N1C(=O)C(N)Cc1ccc(Cl)cc1 (stereo not drawn) | 0% |
